System: SK-LMS-1
PROTOCOL_TEXT: standardised AUC of viability dose-response curve (72 h) (fraction (0-1)); higher = less growth inhibition (more resistant)
Consider the following compounds; for each one, report its standardised AUC.
One number for each entry.

Input: Reported standardised AUC, compound C#Cc1cccc(Nc2ncnc3cc(OCCOC)c(OCCOC)cc23)c1 [ERLOTINIB] : ____
Output: 0.968

Input: Moving on to Cc1cc(Nc2ncc(Cl)c(Nc3ccccc3S(=O)(=O)C(C)C)n2)c(OC(C)C)cc1C1CCNCC1 [CERITINIB]
Output: 0.924

Go through the items and report each one's standardised AUC.
1. Cc1nc(Nc2ncc(C(=O)Nc3c(C)cccc3Cl)s2)cc(N2CCN(CCO)CC2)n1 [DASATINIB]
2. C1=N/C2=N/c3ccc(OCCN4CCCC4)c(c3)COC/C=C/COCc3cccc(c3)C(=C1)N2 [PACRITINIB]
3. Cc1c(F)cc(C(=O)NC2CC2)cc1-c1ccc(C(=O)NCC(C)(C)C)cn1 [LOSMAPIMOD]
4. FC(F)(F)c1ccc(CNc2ccc(Cc3c[nH]c4ncc(Cl)cc34)cn2)cn1 [PEXIDARTINIB]
5. CCCCCCCCCCCCCCCCCCOP(=O)([O-])OC1CC[N+](C)(C)CC1 [PERIFOSINE]

Output:
[0.78, 0.897, 0.973, 0.979, 0.941]
